# target: human AR (Homo sapiens, UniProt P10275)
# Construct: expressed in transfected cells; host or cells: COS-1 cells
# Sequence (P10275 whole entry): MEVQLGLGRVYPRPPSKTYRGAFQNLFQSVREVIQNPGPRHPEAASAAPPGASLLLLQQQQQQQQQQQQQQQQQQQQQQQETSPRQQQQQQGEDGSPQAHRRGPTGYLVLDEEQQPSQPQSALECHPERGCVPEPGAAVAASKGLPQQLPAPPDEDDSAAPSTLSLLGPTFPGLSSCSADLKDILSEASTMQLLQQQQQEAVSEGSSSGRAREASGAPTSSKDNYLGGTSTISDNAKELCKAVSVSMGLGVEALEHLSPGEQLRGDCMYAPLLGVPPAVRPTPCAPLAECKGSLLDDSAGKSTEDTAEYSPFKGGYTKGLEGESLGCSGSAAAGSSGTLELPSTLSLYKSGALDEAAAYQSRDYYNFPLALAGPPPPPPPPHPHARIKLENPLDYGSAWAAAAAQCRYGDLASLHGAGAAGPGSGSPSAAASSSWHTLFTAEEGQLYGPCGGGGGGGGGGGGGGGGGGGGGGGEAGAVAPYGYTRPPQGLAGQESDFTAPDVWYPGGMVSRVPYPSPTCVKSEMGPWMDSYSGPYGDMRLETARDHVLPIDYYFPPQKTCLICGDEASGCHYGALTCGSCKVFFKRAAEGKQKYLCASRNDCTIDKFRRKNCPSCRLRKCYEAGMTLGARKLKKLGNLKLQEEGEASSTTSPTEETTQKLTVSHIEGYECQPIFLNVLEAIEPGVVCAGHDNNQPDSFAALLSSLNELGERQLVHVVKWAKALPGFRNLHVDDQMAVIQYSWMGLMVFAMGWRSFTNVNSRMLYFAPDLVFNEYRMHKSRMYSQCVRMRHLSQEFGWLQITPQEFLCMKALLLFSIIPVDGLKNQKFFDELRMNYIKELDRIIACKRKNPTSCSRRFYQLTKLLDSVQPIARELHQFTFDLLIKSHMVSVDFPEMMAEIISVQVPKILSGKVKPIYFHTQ
# experiment: IR Binding Assay: whole cell competitive binding of test compounds against 3H-DHT in COS-1 cells transfected with pRShAR
# run_conditions: competition with 1 nM 3H-DHT, transfected COS-1 cells, 3 h at 37° C., Cheng-Prusoff from IC50
pKi: −log10 of the molar value.
metric_name: pKi

>>> val("Cc1c(C)n(CC(O)C(F)(F)F)c2ccc3[nH]c(=O)cc(Cl)c3c12 (racemic) [Compound 279]")
"> 8.30"

###

# target: human AR (Homo sapiens)
# Construct: expressed in transfected cells; host or cells: COS-1 cells
# experiment: IR Binding Assay: whole cell competitive binding of test compounds against 3H-DHT in COS-1 cells transfected with pRShAR
pKi: −log10 of the molar value.
metric_name: pKi

>>> val("Cc1c(-c2cccs2)n(CC(F)(F)C(F)(F)F)c2ccc3[nH]c(=O)cc(Cl)c3c12")
"< 8.00"
>>> val("Cc1c(-c2ccccn2)n(CC(F)(F)C(F)(F)F)c2ccc3[nH]c(=O)cc(Cl)c3c12")
"> 8.30"
>>> val("Cc1c(C)n(CCC(F)(F)F)c2ccc3[nH]c(=O)cc(C(F)(F)F)c3c12")
"> 8.30"
>>> val("Cc1c(-c2ccncc2)n(C[C@H](O)C(F)(F)F)c2ccc3[nH]c(=O)cc(Cl)c3c12")
"< 8.00"
>>> val("CCN1CC(C)c2c1ccc1[nH]c(=O)cc(Cl)c21 (racemic)")
"> 8.30"
>>> val("Cc1c(C(F)(F)F)n(CC(O)C(F)(F)F)c2ccc3[nH]c(=O)cc(Cl)c3c12 (racemic)")
"> 8.30"
>>> val("Cc1c(-c2ccccc2)n(CC(F)(F)C(F)(F)F)c2ccc3[nH]c(=O)cc(Cl)c3c12")
"> 8.30"
>>> val("Cc1c(C=O)c2c3c(Cl)cc(=O)[nH]c3ccc2n1Cc1ccccc1")
"> 8.30"
>>> val("Cc1c(-c2ccc(F)cc2)n(CC(F)(F)F)c2ccc3[nH]c(=O)cc(Cl)c3c12")
"> 8.30"
>>> val("CC1c2c(ccc3[nH]c(=O)cc(Cl)c23)N(CC(F)(F)C(F)(F)F)C1C (racemic)")
"> 8.30"
>>> val("Cc1c(-c2cccc([N+](=O)[O-])c2)n(CC(F)(F)F)c2ccc3[nH]c(=O)cc(Cl)c3c12")
"8.00 to 8.30"
>>> val("Cc1c(C(F)(F)C(F)(F)F)n(CC(F)(F)F)c2ccc3[nH]c(=O)cc(Cl)c3c12")
"> 8.30"
>>> val("Cc1c(-c2cccs2)n(C[C@@H](O)C(F)(F)F)c2ccc3[nH]c(=O)cc(Cl)c3c12")
"> 8.30"
>>> val("CCC1c2c(ccc3[nH]c(=O)cc(Cl)c23)N(CC(F)(F)F)C1C (racemic)")
"< 8.00"
>>> val("CCc1c(C)c2c3c(C(F)(F)F)cc(=O)[nH]c3ccc2n1CCC(F)(F)F")
"> 8.30"
>>> val("Cc1c(C=O)c2c3c(Cl)cc(=O)[nH]c3ccc2n1CCO")
"< 8.00"
